Field: apparent KD of MS2 coat protein. Provide a value for each of the sequences that follow.
Test system: MS2 coat protein
Measurement protocol: apparent KD of MS2 coat protein; designed switch direction (-1 OFF switch, 1 ON switch): -1; higher = weaker reporter binding
Condition description: Eterna round: R95; input ligand: microRNA oligo, concentration not stated
Answers are plain numbers, in nM.

Solved cases (3 shown):
Item sequence | Result units | apparent KD of MS2 coat protein
AAACAGGGAGGAUAUACAUAGAUCCUCUAACCUAAUUGGUCACAUGAGGAUCACCCAUGUAGAAGGCCCUUAGG [Enquanes] (puzzle: Exclusion 2) | nM | 13.6
GUGUAACUACACGGGCUCAACAUGAGGAUCACCCAUGUCAUACACGCAAGCUUUUUGCUUGUCUUAUCAGUCCGUGA [Rereerdiin] (puzzle: Sensor v3, turn-off variant 1) | nM | 13.4
CUUAGCCUAAAAUCACGCAAGCUUUUUGCUUGUCUUAAGACAUGAGGAUCACCCAUGUCCGGGCUGAACUUAUGGAA [Zarebe] (puzzle: Sensor v3, turn-off variant 2) | nM | 20.4

Hello, I would appreciate it if you could give apparent KD of MS2 coat protein for each entry below.
1. CUUGUUUAUGUGAGGAUAUACUGUUAGUAAUGUUUGUAGAAGGUACAUGAGGAUCACCCAUGUUUAUUUAUAUU [JR_BME4_Sub043] (puzzle: Brourd's mod of Exclusion 4)
2. UAUUAACAAGCUAGAUCCCACAUGAGGAUCACCCAUGUGCUCGUCUUAUAAGGUACUGUGACGAAAGUCACGGUACC [Sensor 3, v1 - 78] (puzzle: Sensor v3, turn-off variant 1)
3. AAAGGUGAGUAGGAUAUCCACGCACGAAUAAAGGGAGAAGGACUUACAUGAGGAUCACCCAUGUAAGGUGGUAA [Orte] (puzzle: Exclusion 6)
4. AGUACUAACACGUGUGUGUUAGUACAAUAAGCUUGUGAAACAUGAGGAUCACCCAUGUCCUCAUAAGCUCGUCUUAU [salish99_TOv2_r3_074] (puzzle: Sensor v3, turn-off variant 2)
5. AGUUGGCGAGGAUAUACAUGAGGAUCACCCAUGUGAGAGAAAAAAGUGAGGAAGAAAAGUAGAAGGCGCUGACG [salish99_ex3_r3_040] (puzzle: Exclusion 3)
6. ACAAGCUUCGAUAUCCUUAACAUGAGGAUCACCCAUGUUCGUCUUAUGAUGGUCUGAUCCCUGAGGAUCGGACCGUU [JL-sv1-2.09 Brourd Mod] (puzzle: Sensor v3, turn-off variant 1)
7. ACGUGAUACCUGUCGGUGGACAUGAGGAUCACCCAUGUAAGCUUUUUGCUCGUCUUAUAACCCGGUGACAGACCUUC [Racequbebe] (puzzle: Sensor v3, turn-off variant 1)

1: 18.1; 2: 188; 3: 14.3; 4: 813; 5: 38.5; 6: 62.3; 7: 544
